Every entry's value here was drawn from paper PMC2857867.

TESTED SYSTEM: VACV strain WR IFNα/βBP B18 (vaccinia virus strain Western Reserve, UniProt P25213 20-351)
METHOD DESCRIPTION: SPR
Each entry below carries its recorded koff.

Worked cases, koff given:
BINDER	RECORDED VALUE
mIFNβ (ligand) INYKQLQLQERTNIRKCQELLEQLNGKINLTYRADFKIPMEMTEKMQKSYTAFAIQEMLQNVFLVFRNNFSSTGWNETIVVRLLDELHQQTVFLKTVLEEKQEERLTWEMSSTALHLKSYYWRVQRYLKLMKYNSYAWMVVRAEIFRNFLIIRRLTRNFQN	0.000333 s⁻¹
mIL-28A (ligand) DPVPRATRLPVEAKDCHIAQFKSLSPKELQAFKKAKDAIEKRLLEKDLRCSSHLFPRAWDLKQLQVQERPKALQAEVALTLKVWENMTDSALATILGQPLHTLSHIHSQLQTCTQLQATAEPRSPSRRLSRWLHRLQEAQSKETPGCLEASVTSNLFRLLTRDLKCVANGDQCV	0.0112 s⁻¹

Using the record for hIL-28A (ligand) VPVARLHGALPDARGCHIAQFKSLSPQELQAFKRAKDALEESLLLKDCRCHSRLFPRTWDLRQLQVRERPMALEAELALTLKVLEATADTDPALVDVLDQPLHTLHHILSQFRACIQPQPTAGPRTRGRLHHWLYRLQEAPKKESPGCLEASVTFNLFRLLTRDLNCVASGDLCV , state its measured koff.
0.00364 s⁻¹

Using the record for mIFNα-A (ligand) CDLPHTYNLRNKRALKVLAQMRRLPFLSCLKDRQDFGFPLEKVDNQQIQKAQAIPVLRDLTQQTLNLFTSKASSAAWNATLLDSFCNDLHQQLNDLQTCLMQQVGVQEPPLTQEDALLAVRKYFHRITVYLREKKHSPCAWEVVRAEVWRALSSSVNLLPRLSEEKE , state its measured koff.
0.000784 s⁻¹
